These measurements were taken from DBAASP.

Observed MIC, system Salmonella typhimurium KCTC 1926.
# value in µM; strip the unit string

{"molecule": "CC[C@H](C)[C@H](NC(=O)CNC(=O)[C@@H](NC(=O)[C@H](CCCCN)NC(=O)[C@H](CCCCN)NC(=O)[C@H](Cc1ccccc1)NC(=O)[C@H](CC(C)C)NC(=O)[C@H](CCCCN)NC(=O)[C@H](Cc1c[nH]c2ccccc12)NC(=O)[C@@H](N)CCCCN)[C@@H](C)CC)C(=O)NCC(=O)N[C@@H](CCCCN)C(=O)N[C@@H](Cc1ccccc1)C(=O)N[C@@H](CC(C)C)C(=O)N[C@@H](CCCCN)C(=O)N[C@@H](CCCCN)C(=O)N[C@@H](CCCCN)C(N)=O [KWKLFKKIGIGKFLKKK]", "MIC, µM": 0.19}
{"molecule": "CC[C@H](C)[C@H](N)C(=O)N[C@@H](CC(C)C)C(=O)N[C@@H](CCCCN)C(=O)N[C@@H](Cc1c[nH]c2ccccc12)C(=O)N[C@@H](CCCCN)C(=O)N[C@@H](Cc1c[nH]c2ccccc12)C(=O)N1CCC[C@H]1C(=O)N[C@@H](Cc1c[nH]c2ccccc12)C(=O)N[C@@H](Cc1c[nH]c2ccccc12)C(=O)N1CCC[C@H]1C(=O)N[C@@H](Cc1c[nH]c2ccccc12)C(=O)N[C@@H](CCCN=C(N)N)C(=O)N[C@@H](CCCN=C(N)N)C(N)=O [ILKWKWPWWPWRR]", "MIC, µM": 5.16}
{"molecule": "CC(C)C[C@H](NC(=O)[C@H](Cc1c[nH]c2ccccc12)NC(=O)[C@H](CCCCN)NC(=O)[C@H](CCCCN)NC(=O)[C@H](Cc1c[nH]c2ccccc12)NC(=O)[C@H](CC(C)C)NC(=O)[C@H](CCCCN)NC(=O)[C@H](Cc1c[nH]c2ccccc12)NC(=O)[C@H](CC(C)C)NC(=O)[C@@H](N)CCCCN)C(=O)N[C@@H](CCCCN)C(N)=O [KLWKLWKKWLK]", "MIC, µM": 1}
{"molecule": "CC[C@H](C)[C@H](NC(=O)[C@H](C)NC(=O)[C@H](CC(C)C)NC(=O)[C@H](CS)NC(=O)[C@H](Cc1cnc[nH]1)NC(=O)[C@H](C)NC(=O)[C@H](C)N)C(=O)NCC(=O)N[C@@H](CCCN=C(N)N)C(=O)N[C@@H](CCCN=C(N)N)C(N)=O [AAHCLAIGRR]", "MIC, µM": 15}
{"molecule": "CC[C@H](C)[C@H](NC(=O)[C@H](CCCN=C(N)N)NC(=O)[C@H](CCCCN)NC(=O)[C@H](CCCN=C(N)N)NC(=O)[C@@H](NC(=O)[C@H](CCCN=C(N)N)NC(=O)[C@@H](N)CCCCN)[C@@H](C)CC)C(=O)N[C@@H](CCCCN)C(=O)N[C@@H](CCCCN)C(=O)N[C@@H](Cc1c[nH]c2ccccc12)C(=O)N[C@@H](CCCCN)C(=O)N[C@@H](CCCN=C(N)N)C(N)=O [KRIRKRIKKWKR]", "MIC, µM": 2}

Measured MIC for this entry CC[C@H](C)[C@H](NC(=O)[C@H](CCCCN)NC(=O)[C@H](CO)NC(=O)[C@H](Cc1ccccc1)NC(=O)[C@H](CC(C)C)NC(=O)[C@H](CCCCN)NC(=O)[C@H](CCC(=O)O)NC(=O)[C@H](CC(C)C)NC(=O)[C@H](CCCN=C(N)N)NC(=O)[C@H](CCCCN)NC(=O)[C@H](Cc1ccccc1)NC(=O)[C@H](Cc1c[nH]c2ccccc12)NC(=O)[C@@H](N)CCCCN)C(N)=O [KWFKRLEKLFSKI] on Salmonella typhimurium KCTC 1926: 0.78

Measured MIC for this entry CC[C@H](C)[C@H](NC(=O)[C@H](CCCCN)NC(=O)[C@H](Cc1c[nH]c2ccccc12)NC(=O)[C@H](CC(C)C)NC(=O)[C@@H](N)CCCCN)C(=O)N[C@H](C(=O)N[C@H](C(=O)N[C@H](C(=O)N[C@@H](CCCCN)C(=O)N[C@H](C(=O)N[C@@H](Cc1c[nH]c2ccccc12)C(=O)N[C@@H](CCCCN)C(N)=O)C(C)C)[C@@H](C)CC)C(C)C)C(C)C [KLWKIVVIKVWK] on Salmonella typhimurium KCTC 1926: 16.2

Measured MIC for this entry CC(C)C[C@H](NC(=O)[C@@H](N)CCCN=C(N)N)C(=O)N[C@@H](Cc1c[nH]c2ccccc12)C(=O)N[C@@H](CCCN=C(N)N)C(=O)N[C@@H](CCCN=C(N)N)C(=O)N[C@@H](Cc1c[nH]c2ccccc12)C(=O)N[C@@H](CCCN=C(N)N)C(=O)N[C@@H](CCCN=C(N)N)C(=O)N[C@@H](Cc1c[nH]c2ccccc12)C(=O)N[C@@H](CCCN=C(N)N)C(=O)N[C@@H](CCCN=C(N)N)C(N)=O [RLWRRWRRWRR] on Salmonella typhimurium KCTC 1926: 4

Measured MIC for this entry CC[C@H](C)[C@H](NC(=O)[C@H](C)NC(=O)[C@H](CC(C)C)NC(=O)[C@H](CS)NC(=O)[C@H](Cc1cnc[nH]1)NC(=O)[C@H](C)NC(=O)[C@H](C)N)C(=O)NCC(=O)N[C@@H](CCCN=C(N)N)C(=O)N[C@@H](CCCCN)C(N)=O [AAHCLAIGRK] on Salmonella typhimurium KCTC 1926: 7.5

Measured MIC for this entry CC[C@H](C)[C@H](NC(=O)[C@H](CCCCN)NC(=O)[C@H](CCCCN)NC(=O)[C@H](CC(C)C)NC(=O)[C@@H](N)CCCCN)C(=O)N[C@H](C(=O)N[C@H](C(=O)N[C@H](C(=O)N[C@@H](CCCCN)C(=O)N[C@H](C(=O)N[C@@H](CCCCN)C(=O)N[C@@H](CCCCN)C(N)=O)C(C)C)[C@@H](C)CC)C(C)C)C(C)C [KLKKIVVIKVKK] on Salmonella typhimurium KCTC 1926: 2.2

Measured MIC for this entry CC[C@H](C)[C@H](NC(=O)[C@H](CCCN=C(N)N)NC(=O)[C@H](CC(C)C)NC(=O)[C@@H](N)CC(C)C)C(=O)N[C@@H](C)C(=O)N[C@@H](CC(C)C)C(=O)N[C@@H](CCCN=C(N)N)C(=O)N[C@@H](CCCCN)C(=O)N[C@@H](CCCCN)C(N)=O [LLRIALRKK] on Salmonella typhimurium KCTC 1926: 7.2

* * *

Observed MIC, system Staphylococcus aureus NCTC 10788.
# value in µM; strip the unit string

{"item smiles": "CC[C@H](C)[C@H](NC(=O)CNC(=O)[C@H](CO)NC(=O)[C@H](CC(C)C)NC(=O)[C@H](CC(C)C)NC(=O)CN)C(=O)N[C@@H](CC(C)C)C(=O)NCC(=O)N[C@@H](C)C(=O)NCC(=O)N[C@@H](CCCCN)C(=O)N[C@@H](CCCCN)C(=O)N[C@H](C(=O)N[C@H](C(=O)N[C@@H](Cc1ccccc1)C(N)=O)C(C)C)[C@@H](C)CC", "tested target": "Staphylococcus aureus NCTC 10788", "test result": 2}

Measured MIC for this entry CC[C@H](C)[C@H](NC(=O)CNC(=O)CNC(=O)[C@H](C)NC(=O)[C@@H](NC(=O)[C@H](CCCCN)NC(=O)[C@@H]1CCCN1C(=O)[C@@H](NC(=O)[C@H](CC(C)C)NC(=O)[C@H](CO)NC(=O)[C@H](CC(C)C)NC(=O)[C@@H](N)Cc1ccccc1)[C@@H](C)CC)[C@@H](C)CC)C(=O)N[C@@H](C)C(=O)N[C@@H](C)C(=O)N[C@@H](CC(C)C)C(=O)N[C@H](C(=O)N[C@@H](CCCCN)C(=O)N[C@@H](CC(N)=O)C(=O)N[C@@H](CC(C)C)C(N)=O)C(C)C on Staphylococcus aureus NCTC 10788: 4

* * *

tested on: Enterococcus faecalis
measured quantity: MIC (µM)
# value in µM; strip the unit string

Reported MIC for CC[C@H](C)[C@H](NC(=O)CN)C(=O)N[C@H](C(=O)N[C@@H](C)C(=O)NCC(=O)N[C@H](C(=O)N[C@H](C(=O)N[C@H](C(=O)N[C@@H](CCCCN)C(=O)N[C@H](C(=O)N[C@@H](CCCCN)C(=O)N[C@@H](CCCCN)C(N)=O)[C@@H](C)CC)[C@@H](C)CC)[C@@H](C)CC)[C@@H](C)CC)[C@@H](C)CC [GIIAGIIIKIKK] was 16

* * *

Consider the following compounds and their measured MIC readings.
tested on: Staphylococcus aureus NCTC 8325-4

{"item smiles": "CC(C)C[C@H](NC(=O)[C@H](CC(N)=O)NC(=O)[C@H](CCC(=O)O)NC(=O)[C@H](CC(N)=O)NC(=O)[C@H](CC(C)C)NC(=O)[C@@H](N)C(C)C)C(=O)N[C@@H](C)C(=O)N[C@@H](CCCN=C(N)N)C(=O)O", "tested target": "Staphylococcus aureus NCTC 8325-4", "MIC": "≥ 625 µM"}
{"item smiles": "CC(C)C[C@H](NC(=O)[C@H](C)NC(=O)[C@@H](N)C(C)C)C(=O)N[C@@H](CC(N)=O)C(=O)N[C@@H](CCC(=O)O)C(=O)N[C@@H](CC(N)=O)C(=O)N[C@@H](CC(C)C)C(=O)N[C@@H](CC(C)C)C(=O)N[C@@H](CCCN=C(N)N)C(=O)O", "tested target": "Staphylococcus aureus NCTC 8325-4", "MIC": "≥ 625 µM"}
{"item smiles": "CC(C)C[C@H](NC(=O)[C@H](CC(C)C)NC(=O)[C@H](CC(N)=O)NC(=O)[C@H](CCC(=O)O)NC(=O)[C@H](CC(N)=O)NC(=O)[C@H](CC(C)C)NC(=O)[C@@H](N)C(C)C)C(=O)N[C@@H](CCCCN)C(=O)O", "tested target": "Staphylococcus aureus NCTC 8325-4", "MIC": "≥ 1250 µM"}

We next turn to a different compound, shown below.
Measured MIC for this entry CC(C)C[C@H](NC(=O)[C@H](CC(C)C)NC(=O)[C@H](CCCCN)NC(=O)[C@H](CCCCN)NC(=O)[C@H](CC(C)C)NC(=O)[C@H](CC(C)C)NC(=O)[C@H](CCCCN)NC(=O)[C@H](CCCCN)NC(=O)[C@@H](N)CC(C)C)C(=O)N[C@@H](CCCCN)C(N)=O on Staphylococcus aureus NCTC 8325-4: ≥ 500 µM
